# target-of-assay: HLA class I histocompatibility antigen, A alpha chain (Homo sapiens, UniProt P04439, D140Y/D185E/D98H/E176V/E277Q/G131W/G231S/I119V/I121R/I166T/I218V/L300P/L318F/N151K/N90K/P208A/P217A/Q86G/Q94H/R138H/R169H/T345S)
# assay-explanation: Binding affinity to human biotinylated HLA-A2 by surface plasmon resonance assay
Where a name gives a salt, the structure may show the parent alone.
Property: pKd; scope: individual compounds
As a rule, pKd stands for the negative log10 of the concentration, concentration in M.

Field: example entries. Status: answers known.
O=C(c1ccc(OCCN2CCCCC2)cc1)c1c(-c2ccc(O)cc2)sc2cc(O)ccc12 [RALOXIFENE HYDROCHLORIDE]; 4.66
O=c1n(CCCN2CCN(c3cccc(Cl)c3)CC2)nc2ccccn12 [TRAZODONE HYDROCHLORIDE]; 5.60

Consider the record given below.
Request the reported pKd associated with COc1cc2nc(N3CCN(C(=O)C4COc5ccccc5O4)CC3)nc(N)c2cc1OC (stereo unspecified) [DOXAZOSIN MESYLATE]
4.80

====

The entries below are paired with their reported pKd.
# target-of-assay: HLA class I histocompatibility antigen, A alpha chain (Homo sapiens, UniProt P04439, D140Y/D185E/D98H/E176V/E277Q/G131W/G231S/I119V/I121R/I166T/I218V/L300P/L318F/N151K/N90K/P208A/P217A/Q86G/Q94H/R138H/R169H/T345S)
# assay-explanation: Binding affinity to human biotinylated HLA-A2 by surface plasmon resonance assay
pKd: −log10 of the molar value.

Example entries and their recorded answers appear below.
O=C(CCCN1CCC2(CC1)C(=O)NCN2c1ccccc1)c1ccc(F)cc1; 4.12 to 5.60
O=C(CCCN1CCC(O)(c2ccc(Cl)cc2)CC1)c1ccc(F)cc1; > 5.00

Please find the next molecule below.
Form field: reported pKd of COc1ccc(CCN2CCC(Nc3nc4ccccc4n3Cc3ccc(F)cc3)CC2)cc1
4.12 to 5.60
